Measured LogP accompanies every entry in the list below.
- assayProtocol: Measurement of LogP values by HPLC on reversed phase columns (EEC directive 79/831 Annex V.A8)
- Type: physicochemical
Marks after values point to notes of the source that are not given here.

Worked cases, answers included:
compound | LogP
CC(O)(Cn1cncn1)c1ccc(Oc2ccc(Br)cc2)nc1C(F)(F)F (single isomer, unassigned) [I.102] | 2.94^[a]
OC(Cn1cncn1)c1cnc(Oc2ccc(Cl)cc2)cc1Cl (stereo not drawn) [I.68] | 2.48^[a]
OC(Cn1cncn1)c1ccc(Oc2ccc(OC(F)(F)F)c(Cl)c2)nc1Cl (racemic) [I.11] | 3.11^[a]

Exercise: Which LogP value is on record for Cc1cc(Cl)ccc1Oc1ccc(C(C)(O)Cn2cncn2)c(Cl)n1 (racemic) [I.28] ?
Solution: 2.94^[a]

Exercise: What about this compound? O=C(CBr)c1cnc(Oc2ccc(Cl)cc2)cc1C(F)(F)F [VI.14]
Solution: 4.29^[a]

Exercise: What about this compound? CC(=O)c1cnc(Oc2ccc(OC(F)(F)F)cc2)cc1C(F)(F)F [V.15]
Solution: 4.20^[a]

Exercise: What about this compound? FC(F)(F)c1nc(Oc2ccc(S(F)(F)(F)(F)F)cc2)ccc1C1(C2CC2)CO1 (stereo not drawn) [IX.09]
Solution: 5.22^[a]

Exercise: What about this compound? CCC(O)(Cn1cncn1)c1cnc(Oc2ccc(C(F)(F)F)cc2)cc1C(F)(F)F (stereo not drawn) [I.76]
Solution: 3.52^[a]

Exercise: What about this compound? OC(Cn1cncn1)c1ncc(Oc2ccccc2)cc1Cl (racemic) [I.22]
Solution: 2.01^[a]

Exercise: What about this compound? O=C(CCl)c1cnc(Oc2ccc(Cl)cc2F)cc1C(F)(F)F [VI.25]
Solution: 4.15^[a]

Exercise: What about this compound? CC(C)c1ccc(Oc2ccc(C(=O)Cn3cncn3)c(C(F)(F)F)n2)cc1 [VII.34]
Solution: 3.44^[a]
